System: TDF
Test summary: cell number relative to DMSO (% of DMSO); higher = more cells (less growth inhibition / toxicity)
Particulars: concentration: 10 µM; 24 h
Returns Condition met if the recorded cell number is greater than or equal to 100, and Condition not met otherwise.

{"Molecule": "COc1cc(C(=O)c2ccc3ncccc3c2)cc(OC)c1OC", "Class": "Condition not met"}

// query Hello, I need to know if Cl.O=c1n(CCCN2CCN(c3cccc(Cl)c3)CC2)nc2ccccn12 [Trazodone hydrochloride] has measured cell number not below 100. Thanks!
// result Condition met

// query Check if cell number >= 100 (inclusive). Item: CCCCCCCCCCCCCCCC(=O)NCC(COP(=O)([O-])OCC[N+](C)(C)C)OCC (racemic)
// result Condition not met

// query Please tell me: is the molecule O=C(O)c1cc(N(Cc2ccccc2O)Cc2cc(O)ccc2O)ccc1O at or over 100 in terms of cell number?
// result Condition not met

// query Kindly determine if cell number recorded for Cc1onc(-c2ccccc2)c1C(=O)NC1C(=O)N2C1SC(C)(C)C2C(=O)[O-] (centres undefined) is above or exactly 100.
// result Condition met

// query Say whether N#Cc1ccc(N2N=C3c4ccc(C(=O)O)cc4CCC3C2C2CCCC2)cc1Cl (centres undefined) shows cell number of 100 or more.
// result Condition met

// query Please indicate if the recorded cell number for CC(=O)O.O=C(O)c1ccc2c3c1cccc3c(=O)n1c3ccccc3nc21 meets or exceeds 100.
// result Condition not met

// query Determine whether measured cell number meets or exceeds 100 for CC1CCC2(OC1)OC1CC3C4CCC5CC(O)CCC5(C)C4CCC3(C)C1C2C (centres undefined)
// result Condition met

// query Say whether CC1=C(CC(=O)O)c2cc(F)ccc2C1=Cc1ccc(S(C)=O)cc1 (centres undefined) shows cell number of 100 or more.
// result Condition met

// query Test whether the molecule NC(=S)NCCCC(N)C(=O)O (centres undefined) records cell number of 100 or higher.
// result Condition met

// query Test whether the molecule Nc1ccc(S(=O)(=O)Nc2ncccn2)cc1 records cell number of 100 or higher.
// result Condition met

// query API: above_or_equal(metric=cell number, cutoff=100) for item CCCCc1nc(Cl)c(CO)n1Cc1ccc(-c2ccccc2-c2nnn[n-]2)cc1.[K+]
// result Condition not met

// query Reported cell number at or above 100? CC1(C)CCC=[N+]1[O-] [5,5-Dimethyl-1-pyrroline-N-oxide]
// result Condition met

// query Is cell number at least 100? Consider N#CC(=Cc1ccc(O)c(O)c1)C(=O)OCC=Cc1ccccc1
// result Condition met

// query Assess whether reported cell number for Nc1nc(N)c2nc(-c3ccccc3)c(N)nc2n1 sits at 100 or higher.
// result Condition met

// query Can O=C(O)c1ccccc1Nc1ccccc1 be said to have cell number at or above 100?
// result Condition met

====

System: TDF
Test summary: H1.0 immunofluorescence intensity relative to DMSO (% of DMSO); higher = stronger H1.0 induction, active = 120 or more
Particulars: concentration: 10 µM; 24 h
Respond using exactly one of the listed classes: active, inactive

{"Compound": "Cc1cn(C2CC(N=[N+]=[N-])C(CO)O2)c(=O)[nH]c1=O (centres undefined) [3'-Azido-3'-deoxythymidine]", "Class": "inactive"}

// query Called result for CC(=O)C1CCC2C3CCC4=CC(=O)CCC4(C)C3CCC12C (centres undefined) [Progesterone]
// result inactive

// query In this assay, the call recorded for C[C@@H]1CCN(C(=O)CC#N)C[C@@H]1N(C)c1ncnc2[nH]ccc12 was what?
// result inactive

// query Status in this test for N[C@@H](Cc1c[nH]c2ccc(O)cc12)C(=O)O [5-Hydroxy-L-tryptophan] ?
// result inactive

// query Please share the test call associated with CC(C[N+](C)(C)C)OC(N)=O.[Cl-] (centres undefined) [Bethanechol chloride] .
// result inactive

====

System: HCC1569
Test summary: H1.0 immunofluorescence intensity relative to DMSO (% of DMSO); higher = stronger H1.0 induction, active = 140 or more
Particulars: concentration: 10 µM; 24 h
Measurement label: H1.0 immunofluorescence intensity
Just the number, please, no unit attached.

{"Compound": "CCOC(=O)c1c2c3c(cccc3[nH]c1=O)C(=O)c1ccccc1-2", "H1.0 immunofluorescence intensity": 99.9}
{"Compound": "COc1ccc(Cn2cc(C(=O)O)c(=O)c3ccccc32)cc1", "H1.0 immunofluorescence intensity": 116}
{"Compound": "CCN(CC)CCCCN1c2ccccc2Oc2ccc(Cl)cc21.Cl", "H1.0 immunofluorescence intensity": 159}

// query H1.0 immunofluorescence intensity value for entry NC(=O)N1C(=O)/C(=C(\O)c2cccs2)c2cc(Cl)ccc21
// result 106

// query State the recorded H1.0 immunofluorescence intensity for this entry: O=C(NCCNCC(O)COc1ccc(O)cc1)N1CCOCC1.O=C(O)C=CC(=O)O (centres undefined) [Xamoterol hemifumarate]
// result 109

// query GET /values?readout=H1.0 immunofluorescence intensity&item= COc1cc(NS(C)(=O)=O)ccc1Nc1c2ccccc2nc2ccccc12.Cl [Amsacrine hydrochloride]
// result 113

// query Using the record for CCCCCCC(C(C)O)n1cnc2c(N)ncnc21.Cl (stereo not drawn) [erythro-9-(2-Hydroxy-3-nonyl)adenine hydrochloride] , report its H1.0 immunofluorescence intensity.
// result 88.6

// query Request the reported H1.0 immunofluorescence intensity associated with COc1cc(C(=O)NS(=O)(=O)c2ccccc2C)ccc1Cc1cn(C)c2ccc(NC(=O)OC3CCCC3)cc12
// result 105

// query # lookup: H1.0 immunofluorescence intensity of OCC1OC(Oc2ccc(O)cc2)C(O)C(O)C1O (centres undefined)
// result 92.1

====

Test system: TDF
Test summary: H1.0 immunofluorescence intensity relative to DMSO (% of DMSO); higher = stronger H1.0 induction, active = 120 or more
Particulars: concentration: 10 µM; 24 h
Your answer must be one of the following: y = active, n = inactive

{"Compound": "CC1OC(Oc2c(-c3ccc(O)c(O)c3)oc3cc(O)cc(O)c3c2=O)C(O)C(O)C1O (configuration not stated)", "Class": "n"}
{"Compound": "COc1ccc(-c2ccc3c(N4CCOCC4)nc(N4CC(C)OC(C)C4)nc3n2)cc1CO (configuration not stated)", "Class": "n"}
{"Compound": "CC1(C)CCCC2(C)C1CCC1(C)OC(=O)CC12 [(3aR)-(+)-Sclaerolide]", "Class": "n"}
{"Compound": "O=C1NC(=O)C(c2ccccc2)(c2ccccc2)N1", "Class": "n"}
{"Compound": "CCCCCCCCC=CCCCCCCCC(N)=O [9,10-Octadecenoamide]", "Class": "n"}
{"Compound": "CC(N)(COP(=O)(O)O)C(=O)O (configuration not stated)", "Class": "n"}
{"Compound": "C1CCC(C(CC2CCCCN2)C2CCCCC2)CC1.O=C(O)C=CC(=O)O (configuration not stated)", "Class": "y"}
{"Compound": "CC1CCC2(C(=O)O)CCC3(C)C(=CCC4C5(C)CC(O)C(O)C(C)(CO)C5C(O)CC43C)C2C1C (configuration not stated)", "Class": "n"}
{"Compound": "COC(=O)[C@@H](N)Cc1ccc(O)c(O)c1.Cl [L-3,4-Dihydroxyphenylalanine methyl ester hydrochloride]", "Class": "n"}
{"Compound": "CN(C)c1ccc(O)c2c1CC1CC3C(N(C)C)C(=O)C(C(N)=O)=C(O)C3(O)C(=O)C1=C2O.Cl (configuration not stated)", "Class": "n"}

// query Hello, I am checking results. What call was entered for C[C@@H](O)[C@H]1C(=O)N2C(C(=O)O)=C(SCCN=CN)C[C@H]12.O ?
// result n

====

H1.0 immunofluorescence intensity listing for selected compounds.
Tested on: TDF
Test summary: H1.0 immunofluorescence intensity relative to DMSO (% of DMSO); higher = stronger H1.0 induction, active = 120 or more
Particulars: concentration: 10 µM; 24 h
// print number alone

Known H1.0 immunofluorescence intensity results, listed for orientation:
{"Compound": "COc1cc2ncc(-c3ccccc3)nc2cc1OC", "Measurement label": "H1.0 immunofluorescence intensity", "Number": 94}
{"Compound": "CC(COc1ccccc1)N(CCCl)Cc1ccccc1.Cl (stereo not given) [Phenoxybenzamine.HCl]", "Measurement label": "H1.0 immunofluorescence intensity", "Number": 97.7}
{"Compound": "c1ccc(C2CN3CCSC3=N2)cc1 (stereo not given)", "Measurement label": "H1.0 immunofluorescence intensity", "Number": 102}
{"Compound": "CC(C)(C)NCC(O)c1ccc(O)c(CO)c1 (stereo not given)", "Measurement label": "H1.0 immunofluorescence intensity", "Number": 95.9}
{"Compound": "CC1=CCCC(C)(O)C=CC(C(C)C)C(OC(=O)c2ccc(O)cc2)C1 (stereo not given)", "Measurement label": "H1.0 immunofluorescence intensity", "Number": 102}

// query Which measured H1.0 immunofluorescence intensity belongs to CC(=O)OCC(=O)NCCCOc1cccc(CN2CCCCC2)c1.Cl [Roxatidine acetate.HCl] , tested on TDF?
// result 103

// query Provide value of H1.0 immunofluorescence intensity for this record tested with TDF: Cl.NCCCCC(=O)O [5-Aminovaleric acid hydrochloride]
// result 96.1

// query Please tell me: H1.0 immunofluorescence intensity of Cc1ccccc1C(OCCN(C)C)c1ccccc1.Cl (stereo not given) [Orphenadrine hydrochloride] , system TDF?
// result 96.6

// query What value of H1.0 immunofluorescence intensity on TDF does O=C(C=Cc1ccc(O)c(O)c1)OCCc1ccccc1 have?
// result 93.1

// query Identify the measured H1.0 immunofluorescence intensity of CC(C)(C)OC(=O)CN(Cc1ccc(Cl)cc1)Cc1ccc([N+](=O)[O-])s1 for TDF.
// result 102

Taken from the supplement of paper PMC7156485.
